test system: Tubulin; conditions: Table 9, displacement of tubulin bound BODIPY-vinblastine
QUANTITY: % displacement
The answer should read as a number with its unit following.

>  <COMPOUND>
CC[C@]1(O)C[C@@H]2CN(CCc3c([nH]c4ccccc34)[C@@](C(=O)OC)(c3cc4c(cc3OC)N(C)[C@H]3[C@@](O)(C(=O)OC)[C@H](OC(C)=O)[C@]5(CC)C=CCN6CC[C@]43[C@@H]65)C2)C1 [Vinblastine (1), Vinblastine, reference compound]

>  <% displacement>
61 ± 13%

$$$$

// batch mode: one % displacement value per listed entry
1. CC[C@]1(NC(=O)c2ccc(C)c(C)c2)C[C@H]2CN(CCc3c([nH]c4ccccc34)[C@@](C(=O)OC)(c3cc4c(cc3OC)N(C)[C@H]3[C@@](O)(C(=O)OC)[C@H](OC(C)=O)[C@]5(CC)C=CCN6CC[C@]43[C@@H]65)C2)C1
2. CCC1(NC(=O)c2ccc3c(c2)CCCC3)CC2CN(CCc3c([nH]c4ccccc34)C(C(=O)OC)(c3cc4c(cc3OC)N(C)C3C(O)(C(=O)OC)C(OC(C)=O)C5(CC)C=CCN6CCC43C65)C2)C1 (stereo not shown)

Result ::
1: 67 ± 8%; 2: 63 ± 5%

Query :: Name the recorded % displacement of the item CCC1(NC(=O)c2ccc3c(c2)CCCO3)CC2CN(CCc3c([nH]c4ccccc34)C(C(=O)OC)(c3cc4c(cc3OC)N(C)C3C(O)(C(=O)OC)C(OC(C)=O)C5(CC)C=CCN6CCC43C65)C2)C1 (stereo not shown) in your answer.
Result :: 98 ± 7%

====

test system: L1210; test: cells; format: cell-based, mouse; settings: Table 2
QUANTITY: IC50 (nM)
Answers are plain numbers, in nM.

>  <MOLECULE>
CCOc1ccc(C(=O)N[C@@]2(CC)C[C@H]3CN(CCc4c([nH]c5ccccc45)[C@@](C(=O)OC)(c4cc5c(cc4OC)N(C)[C@H]4[C@@](O)(C(=O)OC)[C@H](OC(C)=O)[C@]6(CC)C=CCN7CC[C@]54[C@@H]76)C3)C2)cc1Br [Compound 95]

>  <ASSAYED_SYSTEM>
L1210

>  <QUANTITY>
IC50

>  <READOUT_NUMBER>
3.9

$$$$
>  <MOLECULE>
CC[C@]1(NC(=O)c2cc(C)c(OCc3ccccc3)c(C)c2)C[C@H]2CN(CCc3c([nH]c4ccccc34)[C@@](C(=O)OC)(c3cc4c(cc3OC)N(C)[C@H]3[C@@](O)(C(=O)OC)[C@H](OC(C)=O)[C@]5(CC)C=CCN6CC[C@]43[C@@H]65)C2)C1 [Compound 100]

>  <ASSAYED_SYSTEM>
L1210

>  <QUANTITY>
IC50

>  <READOUT_NUMBER>
30

$$$$
>  <MOLECULE>
CC[C@]1(NC(=O)c2ccccc2F)C[C@H]2CN(CCc3c([nH]c4ccccc34)[C@@](C(=O)OC)(c3cc4c(cc3OC)N(C)[C@H]3[C@@](O)(C(=O)OC)[C@H](OC(C)=O)[C@]5(CC)C=CCN6CC[C@]43[C@@H]65)C2)C1 [Compound 46]

>  <ASSAYED_SYSTEM>
L1210

>  <QUANTITY>
IC50

>  <READOUT_NUMBER>
8.4

$$$$

// next entry
Query :: Name the recorded IC50 of the item CCC1(NC(=O)c2ccc(C)c(NC(C)=O)c2)CC2CN(CCc3c([nH]c4ccccc34)C(C(=O)OC)(c3cc4c(cc3OC)N(C)C3C(O)(C(=O)OC)C(OC(C)=O)C5(CC)C=CCN6CCC43C65)C2)C1 (stereo not shown) [Compound 103] in your answer.
Result :: 5.4

====

tested on: Tubulin; conditions: FIG. 2; competitive ligand 18 μM
QUANTITY: percent (%) displacement of tubulin-bound BODIPY-vinblastine
The answer should read as a number with its unit following.

>  <MOLECULE>
CC[C@]1(NC(=O)c2ccc(N(C)C)cc2)C[C@H]2CN(CCc3c([nH]c4ccccc34)[C@@](C(=O)OC)(c3cc4c(cc3OC)N(C)[C@H]3[C@@](O)(C(=O)OC)[C@H](OC(C)=O)[C@]5(CC)C=CCN6CC[C@]43[C@@H]65)C2)C1

>  <RESULT>
88±5%

$$$$
>  <MOLECULE>
CC[C@]1(NC(=O)c2ccc(C#N)cc2)C[C@H]2CN(CCc3c([nH]c4ccccc34)[C@@](C(=O)OC)(c3cc4c(cc3OC)N(C)[C@H]3[C@@](O)(C(=O)OC)[C@H](OC(C)=O)[C@]5(CC)C=CCN6CC[C@]43[C@@H]65)C2)C1

>  <RESULT>
56±5%

$$$$
>  <MOLECULE>
CC[C@]1(O)C[C@@H]2CN(CCc3c([nH]c4ccccc34)[C@@](C(=O)OC)(c3cc4c(cc3OC)N(C)[C@H]3[C@@](O)(C(=O)OC)[C@H](OC(C)=O)[C@]5(CC)C=CCN6CC[C@]43[C@@H]65)C2)C1 [Vinblastine (1), Vinblastine, reference compound]

>  <RESULT>
50%

$$$$

Query :: Name the recorded percent (%) displacement of tubulin-bound BODIPY-vinblastine of the item CCC1(NC(=O)c2ccccc2)CC2CN(CCc3c([nH]c4ccccc34)C(C(=O)OC)(c3cc4c(cc3OC)N(C)C3C(O)(C(=O)OC)C(OC(C)=O)C5(CC)C=CCN6CCC43C65)C2)C1 (stereo not shown) in your answer.
Result :: 72±4%

====

tested on: L1210; assay: cells; type: cell-based, mouse; conditions: Table 2
QUANTITY: IC50
The answer should read as a number with its unit following.

Examples with their reported IC50 follow.
>  <COMPOUND>
CCC1(NC(=O)c2ccc(OC(C)C)cc2)CC2CN(CCc3c([nH]c4ccccc34)C(C(=O)OC)(c3cc4c(cc3OC)N(C)C3C(O)(C(=O)OC)C(OC(C)=O)C5(CC)C=CCN6CCC43C65)C2)C1 (stereo not shown) [Compound 74]

>  <RESULT>
0.7 nM

$$$$
>  <COMPOUND>
CCC1(NC(=O)c2ccc(OC)cc2)CC2CN(CCc3c([nH]c4ccccc34)C(C(=O)OC)(c3cc4c(cc3OC)N(C)C3C(O)(C(=O)OC)C(OC(C)=O)C5(CC)C=CCN6CCC43C65)C2)C1 (stereo not shown) [Compound 67]

>  <RESULT>
0.25 nM

$$$$

// batch mode: one IC50 value per listed entry
1. CC[C@]1(NC(=O)c2ccc(OC(C)(C)C)cc2)C[C@H]2CN(CCc3c([nH]c4ccccc34)[C@@](C(=O)OC)(c3cc4c(cc3OC)N(C)[C@H]3[C@@](O)(C(=O)OC)[C@H](OC(C)=O)[C@]5(CC)C=CCN6CC[C@]43[C@@H]65)C2)C1 [Compound 75]
2. CCC1(NC(=O)c2ccc(C)c(N)c2)CC2CN(CCc3c([nH]c4ccccc34)C(C(=O)OC)(c3cc4c(cc3OC)N(C)C3C(O)(C(=O)OC)C(OC(C)=O)C5(CC)C=CCN6CCC43C65)C2)C1 (stereo not shown) [Compound 101]

Result ::
1: 0.6 nM; 2: 0.6 nM

====

test system: HCT116; experiment: cells; assay type: cell-based, human; conditions: Table 4; read-out: IC50 HCT116
QUANTITY: IC50 (nM)
One number for each entry, in nM.

// batch mode: one IC50 value per listed entry
1. CCC1(NC(=O)c2ccc3c(c2)CCCCC3)CC2CN(CCc3c([nH]c4ccccc34)C(C(=O)OC)(c3cc4c(cc3OC)N(C)C3C(O)(C(=O)OC)C(OC(C)=O)C5(CC)C=CCN6CCC43C65)C2)C1 (centres unmarked) [Compound 126]
2. CC[C@]1(NC(=O)c2ccc3cc4ccccc4cc3c2)C[C@H]2CN(CCc3c([nH]c4ccccc34)[C@@](C(=O)OC)(c3cc4c(cc3OC)N(C)[C@H]3[C@@](O)(C(=O)OC)[C@H](OC(C)=O)[C@]5(CC)C=CCN6CC[C@]43[C@@H]65)C2)C1 [Compound 127]

Result ::
1. 4.8
2. 60

====

tested on: HCT116; assay: cells; format: cell-based, human; conditions: Table 7, C20′ sulfonamides; read-out: IC50 HCT116
Provide the reported pIC50 of each item.
Numbers only, as −log10 of the molar value.

Examples with their reported pIC50 follow.
>  <COMPOUND>
CCC1(NS(=O)(=O)c2cccc3c(N(C)C)cccc23)CC2CN(CCc3c([nH]c4ccccc34)C(C(=O)OC)(c3cc4c(cc3OC)N(C)C3C(O)(C(=O)OC)C(OC(C)=O)C5(CC)C=CCN6CCC43C65)C2)C1 (centres unmarked)

>  <QUANTITY>
pIC50

>  <READOUT_NUMBER>
7.52

$$$$
>  <COMPOUND>
CC[C@]1(NS(=O)(=O)c2ccc3ccccc3c2)C[C@H]2CN(CCc3c([nH]c4ccccc34)[C@@](C(=O)OC)(c3cc4c(cc3OC)N(C)[C@H]3[C@@](O)(C(=O)OC)[C@H](OC(C)=O)[C@]5(CC)C=CCN6CC[C@]43[C@@H]65)C2)C1

>  <QUANTITY>
pIC50

>  <READOUT_NUMBER>
7.22

$$$$
>  <COMPOUND>
CCC1(NS(=O)(=O)c2ccccc2)CC2CN(CCc3c([nH]c4ccccc34)C(C(=O)OC)(c3cc4c(cc3OC)N(C)C3C(O)(C(=O)OC)C(OC(C)=O)C5(CC)C=CCN6CCC43C65)C2)C1 (centres unmarked)

>  <QUANTITY>
pIC50

>  <READOUT_NUMBER>
7.30

$$$$
>  <COMPOUND>
CCC1(NS(=O)(=O)c2ccccc2[N+](=O)[O-])CC2CN(CCc3c([nH]c4ccccc34)C(C(=O)OC)(c3cc4c(cc3OC)N(C)C3C(O)(C(=O)OC)C(OC(C)=O)C5(CC)C=CCN6CCC43C65)C2)C1 (centres unmarked)

>  <QUANTITY>
pIC50

>  <READOUT_NUMBER>
6.38

$$$$
>  <COMPOUND>
CCC1(NS(=O)(=O)c2cccc([N+](=O)[O-])c2)CC2CN(CCc3c([nH]c4ccccc34)C(C(=O)OC)(c3cc4c(cc3OC)N(C)C3C(O)(C(=O)OC)C(OC(C)=O)C5(CC)C=CCN6CCC43C65)C2)C1 (centres unmarked)

>  <QUANTITY>
pIC50

>  <READOUT_NUMBER>
6.31

$$$$

// batch mode: one pIC50 value per listed entry
1. CCC1(NS(=O)(=O)c2ccc(C)cc2)CC2CN(CCc3c([nH]c4ccccc34)C(C(=O)OC)(c3cc4c(cc3OC)N(C)C3C(O)(C(=O)OC)C(OC(C)=O)C5(CC)C=CCN6CCC43C65)C2)C1 (centres unmarked)
2. CCC1(NS(=O)(=O)c2ccc(OC)cc2)CC2CN(CCc3c([nH]c4ccccc34)C(C(=O)OC)(c3cc4c(cc3OC)N(C)C3C(O)(C(=O)OC)C(OC(C)=O)C5(CC)C=CCN6CCC43C65)C2)C1 (centres unmarked)
3. CCC1(NS(=O)(=O)c2c(C)cc(C)cc2C)CC2CN(CCc3c([nH]c4ccccc34)C(C(=O)OC)(c3cc4c(cc3OC)N(C)C3C(O)(C(=O)OC)C(OC(C)=O)C5(CC)C=CCN6CCC43C65)C2)C1 (centres unmarked)

Result ::
[7.52, 7.52, 6.24]
